- target under test: acid ceramidase (AC) (Homo sapiens)
- Sequence (Q13510 22-395): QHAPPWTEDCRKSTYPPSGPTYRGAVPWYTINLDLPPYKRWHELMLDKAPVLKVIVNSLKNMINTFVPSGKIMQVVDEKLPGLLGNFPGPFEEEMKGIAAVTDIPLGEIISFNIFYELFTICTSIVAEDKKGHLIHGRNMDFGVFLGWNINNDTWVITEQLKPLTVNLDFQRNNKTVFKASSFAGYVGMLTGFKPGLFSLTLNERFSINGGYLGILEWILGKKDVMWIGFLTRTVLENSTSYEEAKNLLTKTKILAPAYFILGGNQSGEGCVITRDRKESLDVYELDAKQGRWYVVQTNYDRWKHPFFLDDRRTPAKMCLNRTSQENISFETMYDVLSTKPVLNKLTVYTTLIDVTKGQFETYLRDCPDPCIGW
- experimental protocol: Acid ceramidase HTS assay, 384-well fluorogenic (RBM14-C12), cell lysates
- setup conditions: dose-titration, 8-point two-fold dilution from 200 micromolar; 95% confidence interval in brackets; means of three replicates
Would you kindly list IC50 for each of these compounds?
Please give a number only; it is taken to be in µM.

Report IC50 for Cc1cc(O[C@H](c2ccc(C(=O)NC[C@H](O)C(=O)O)s2)C(C)C)cc(C)c1-c1ccc(C(F)(F)F)cc1 tested on acid ceramidase (AC) (Homo sapiens).
11.1

How about this compound: CN(CCc1ccccn1)S(=O)(=O)c1cccc(Br)c1
10.6

Could you do the same for CC(OC(=O)c1c2c(nc3ccccc13)/C(=C/c1cccs1)CC(C(C)(C)C)C2)C(=O)Nc1ccc(C(N)=O)cc1 (centres unmarked) , please?
15.8

Same question, C=CCNC(=S)Nc1ccc(Cl)c([N+](=O)[O-])c1 this time
10.6

Likewise for CC(C)(C)CC(=O)N1CCN(c2cccc(C(F)(F)F)c2)CC1 ?
48.9

Another compound to check: CC1CCCCN1C(=O)Nc1ccc(Oc2ccccc2)cc1 (centres unmarked)
7.9

For Cc1ccc(CN2CC(C(=O)N(C)Cc3ccc(Cl)c(Cl)c3)CC2=O)cc1 (centres unmarked) then?
23.9

Request: CCCCc1ccc(C(=O)CCC2C(=O)c3ccccc3C2=O)cc1
36.7

Attribution: paper PMC9762759
